system: VchCAST RNA-guided transposition machinery (E. coli BL21(DE3) host, lacZ target); experiment: relative integration efficiency (T-RL orientation) vs wild-type transposon end (log2 (normalized fold change)); transposon end mutated: right end (5 bp flank + 75 bp right end); higher = more efficient transposition
observable: relative integration efficiency (log2)
Answers are plain numbers.

Take a look at these entries with their results.
- sequence data: "ACATTTGTTGATACAACCATAAAATGATAATTAATAATTATTTATAATCAGCAACTTAACCACAAAACACCCATAAATTGATAATTAACAAAACACCCATAAATTGATATTGCTGTGAATCGAGTAT"
  system: "VchCAST RNA-guided transposition machinery (E. coli BL21(DE3) host, lacZ target)"
  relative integration efficiency (log2): -5.86
- sequence data: "ACATTTGTTGATACAACCATAAAATGATAATTACACCCATAAATTGATAATTATCACACCCATAAATTGATATTGAAGATGATCATAGTCAGACCAACATTGCTACGACCCGTATTCGCACCGACAC"
  system: "VchCAST RNA-guided transposition machinery (E. coli BL21(DE3) host, lacZ target)"
  relative integration efficiency (log2): 0.339
- sequence data: "ACATTTGTTGATACAACCATAAAATGATAATTACACCCATAAATTGATAATTATCACACCCATAAATTGATATTGCCTCTGATCAGGAATTGTGAGCGGATAACAATTTAGTCAGACGCACCGACAC"
  system: "VchCAST RNA-guided transposition machinery (E. coli BL21(DE3) host, lacZ target)"
  relative integration efficiency (log2): 0.138
- sequence data: "ACATTAGTTCATACAACCATAAAATGATAATTACACCCATAAATTGATCATTATCACACCCAATTTAACTATAACGCTCTGATCATAGTCAGACCAACATTGCTACGACCCGTATTCGCACCGACAC"
  system: "VchCAST RNA-guided transposition machinery (E. coli BL21(DE3) host, lacZ target)"
  relative integration efficiency (log2): -7.24
- sequence data: "ACATTTGTTGATACAACCATAAAATGATAATTACACCCATAAATTGATAATTATCACACCCATAAATTGATATTGCCTCTGATCATAGTCAGACCAACAACCATAAAATGATAATTAGCACCGACAC"
  system: "VchCAST RNA-guided transposition machinery (E. coli BL21(DE3) host, lacZ target)"
  relative integration efficiency (log2): 0.0312

Would you mind listing relative integration efficiency (log2) for each of the following sequences?
1. ACATTTGTTGATACACCCATAAATTGATATTGCCAACCATAAGTTGATATTTTTCACAACCATAAAATGATAATTACTCTGATCATAGTCAGACCAACATTGCTACGACCCGTATTCGCACCGACAC
2. ACATTTGTAAAAAAAACCATACGTTGATTTTACGAAACCATACGCTGAAATAATCACAACCATAACTTGAAATTGCCTCTGATCATAGTCAGACCAACATTGCTACGACCCGTATTCGCACCGACAC
3. ACATTTGTTGATACAACCATAAAATGATAATTAATAATTATTTATAATCAGCAACTCACCCATAAATTGATAATTATCACACCCATAAATTGATATTGCCTCTGATCATAGTCAGACCAACATTGCT
4. ACATTGGTGGATACAACCATAAAATGATAATTACACCCATAAATGGATAATTATCACACCCAATTTAACTATAACGCTCTGATCATAGTCAGACCAACATTGCTACGACCCGTATTCGCACCGACAC
5. ACATTTGTTGATACACCCATAAATTGATAATTACACCCATAAATTGATAATTATCACAACCATATATTGATATCTCCTCTGATCATAGTCAGACCAACATTGCTACGACCCGTATTCGCACCGACAC

# output
-0.413
-6.63
-3.48
-7.53
-0.596
